# Test system: MIA PaCa-2 cells
# assayExplanation: Growth inhibition activity on KRAS-G12C mutant cell line (MIA PaCa-2)
# Format: cell-based
# conditionParameters: Homo sapiens, 72 h; MIA PaCa-2, 3-day culture, CellTiter-Glo 3D
measuredProperty: IC50 (nM)
Hi! Could you send only the number? It should be in nM, unit omitted.

Query string: Report IC50, nothing else, for this compound: CO[C@H]1CC[C@H](NC/C=C/C(=O)Nc2ccc(C(=O)Nc3cccc(-c4cc5nc6n(c5cc4C)CCC6)n3)cc2C#N)CC1
Result string: 83

Query string: Report IC50, nothing else, for this compound: CO[C@H]1CC[C@H](NC/C=C/C(=O)Nc2ccc(C(=O)c3ccc4c(-c5c(Cl)cc6c(ncn6C)c5Cl)cccn34)cc2C#N)CC1 (single isomer, unassigned)
Result string: 43

Query string: Report IC50, nothing else, for this compound: CO[C@H]1CC[C@H](N(C)C/C=C/C(=O)Nc2ccc(C(=O)c3ccc4c(-c5cc6ncn(C)c6cc5C(F)(F)F)cccn34)cc2C#N)CC1
Result string: 400

Query string: Report IC50, nothing else, for this compound: CO[C@H]1CC[C@H](NC/C=C/C(=O)Nc2ccc(C(=O)c3ccc4c(-c5cc6nc7n(c6cc5C(F)(F)F)CCC7)cccn34)cc2C#N)CC1
Result string: 86

Query string: Report IC50, nothing else, for this compound: CO[C@H]1CC[C@H](NC/C=C/C(=O)Nc2ccc(C(=O)c3ccc4c(-c5cc6ncn(C)c6cc5C(F)F)cccn34)cc2C#N)CC1
Result string: 70

Query string: Report IC50, nothing else, for this compound: CO[C@H]1CC[C@H](NC/C=C/C(=O)Nc2ccc(C(=O)c3cnc4c(-c5cc6ncn(C)c6cc5C)cccn34)cc2C#N)CC1
Result string: 100

Query string: Report IC50, nothing else, for this compound: CO[C@H]1CC[C@H](NC/C=C/C(=O)Nc2c(F)cc(C(=O)c3cnc4c(-c5cc6ncn(C)c6cc5C(F)(F)F)cccn34)cc2F)CC1
Result string: 240

Query string: Report IC50, nothing else, for this compound: Cn1cnc2cc(-c3cccn4c(C(=O)c5ccc(NC(=O)/C=C/CNC(C)(C)C)c(F)c5)ccc34)c(C(F)(F)F)cc21
Result string: 170

Query string: Report IC50, nothing else, for this compound: CO[C@H]1CC[C@H](NC/C=C/C(=O)Nc2ccc(C(=O)Nc3cccc(-c4cc5nc6n(c5cc4C(F)(F)F)CCC6)n3)cc2C#N)CC1
Result string: 92

Query string: Report IC50, nothing else, for this compound: CO[C@H]1CC[C@H](NC/C=C/C(=O)Nc2ccc(C(=O)c3cnc4c(-c5cc6ncn(C)c6cc5C(F)(F)F)cccn34)cc2C#N)CC1
Result string: 190

Query string: Report IC50, nothing else, for this compound: CO[C@H]1CC[C@H](NC/C=C/C(=O)Nc2ccc(C(=O)c3ccc4c(-c5c(C)cc6c(ncn6C)c5Cl)cccn34)cc2C#N)CC1
Result string: 59

Query string: Report IC50, nothing else, for this compound: CCc1nc2cc(-c3cccn4c(C(=O)c5ccc(NC(=O)/C=C/CN[C@H]6CC[C@H](OC)CC6)c(C#N)c5)ccc34)c(C(F)(F)F)cc2n1C
Result string: 48

* * *

Assign pIC50 to each entry below.
# Test system: MIA PaCa-2 cells
# assayExplanation: Growth inhibition activity on KRAS-G12C mutant cell line (MIA PaCa-2)
# Type: cell-based
# conditionParameters: Homo sapiens, 72 h; MIA PaCa-2, 3-day culture, CellTiter-Glo 3D
When answering, recall that pIC50 equals minus log10 of the concentration in mol/L, and write that number alone.

Query string: Report pIC50, nothing else, for this compound: CO[C@H]1CC[C@H](NC/C=C/C(=O)Nc2ccc(C(=O)c3ccc4c(-c5cc6ncn(C)c6cc5C(F)(F)F)cccn34)cc2C#N)CC1 [Example 6]
Result string: 7.37

Query string: Report pIC50, nothing else, for this compound: Cc1cc2c(cc1-c1cccn3c(C(=O)c4cc(F)c(NC(=O)/C=C/CNC(C)(C)C)c(F)c4)ccc13)ncn2C [Example 72]
Result string: 6.70

Query string: Report pIC50, nothing else, for this compound: CCc1cc2c(cc1-c1cccc(NC(=O)c3ccc(NC(=O)/C=C/CN[C@H]4CC[C@H](OC)CC4)c(C#N)c3)c1)nc1n2CCC1 [Example 32]
Result string: 6.51

* * *

# measuredOn: activated KRAS in NCI-H358 (Homo sapiens, UniProt P01116, G12C)
# Construct: host or cells: NCI-H358
# Sequence (P01116 1-188 isoform P01116-2 G12C): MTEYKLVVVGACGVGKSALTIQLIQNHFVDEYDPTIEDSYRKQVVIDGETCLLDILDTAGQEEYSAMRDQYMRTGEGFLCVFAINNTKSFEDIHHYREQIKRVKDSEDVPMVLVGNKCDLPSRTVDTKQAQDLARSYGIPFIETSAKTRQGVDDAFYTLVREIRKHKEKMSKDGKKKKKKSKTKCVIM
# assayExplanation: Amount of activated KRAS on KRAS-G12C mutant cell line NCI-H358 (Ras GTPase Chemi ELISA)
# Assay type: cell-based
# conditionParameters: NCI-H358, with EGF 100 ng/ml, 1 hour with compound; read-out: IC50 NCI-H358 with EGF
Assign IC50 to each entry below.

Query string: Report IC50, nothing else, for this molecule: C=CC(=O)N1CCN(c2ncnc3c(F)c(-c4c(O)cccc4F)c(Cl)cc23)CC1 [ARS-1620, reference compound]
Result string: 5400 nM

Query string: Report IC50, nothing else, for this molecule: CCc1nc2cc(-c3cccc(NC(=O)c4ccc(NC(=O)/C=C/CN[C@H]5CC[C@H](OC)CC5)c(C#N)c4)c3)c(C(F)(F)F)cc2n1C
Result string: 850 nM

Query string: Report IC50, nothing else, for this molecule: CO[C@H]1CC[C@H](NC/C=C/C(=O)Nc2ccc(C(=O)c3ccc4c(-c5cc6ncn(C)c6cc5C)cccn34)cc2C#N)CC1
Result string: 470 nM

* * *

# measuredOn: GMPPNP-bound KRAS G12C protein and cRAF RAS-binding domain (cRAF-RBD) (Homo sapiens, UniProt P01116, G12C)
# Construct: made in house; host or cells: E. coli
# Sequence (P01116 with tags, fused parts or gaps isoform P01116-2 G12C): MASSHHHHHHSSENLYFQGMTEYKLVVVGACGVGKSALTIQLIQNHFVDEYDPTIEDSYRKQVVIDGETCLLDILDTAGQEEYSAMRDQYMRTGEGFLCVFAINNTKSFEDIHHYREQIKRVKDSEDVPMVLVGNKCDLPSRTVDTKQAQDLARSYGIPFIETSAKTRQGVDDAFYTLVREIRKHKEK
# assayExplanation: Inhibitory activity on interaction between KRAS G12C and cRAF (Alpha technology)
# Type: biochemical
# conditionParameters: GMPPNP-bound KRAS G12C incubated with compound at 25° C. for 1 hour, then cRAF-RBD, Alpha signal; read-out: IC50
Assign IC50 to each entry below.
Hi! Could you send only the number? It should be in nM, unit omitted.

Query string: Report IC50, nothing else, for this compound: COc1cc2c(cc1-c1cccn3c(C(=O)c4ccc(NC(=O)/C=C/CN[C@H]5CC[C@H](OC)CC5)c(C#N)c4)ccc13)ncn2C [Example 81]
Result string: 21

Query string: Report IC50, nothing else, for this compound: CO[C@H]1CC[C@H](NC/C=C/C(=O)Nc2ccc(C(=O)c3ncc4c(-c5cc6ncn(C)c6cc5C)cccn34)cc2C#N)CC1 [Example 57]
Result string: 160

Query string: Report IC50, nothing else, for this compound: Cc1ccc2c(cnn2C)c1-c1cccn2c(C(=O)c3ccc(NC(=O)/C=C/CNC(C)(C)C)c(C#N)c3)ccc12 [Example 53]
Result string: 150

Query string: Report IC50, nothing else, for this compound: Cn1cnc2cc(-c3cccn4c(C(=O)c5ccc(NC(=O)/C=C/CNC(C)(C)C)c(F)c5)ccc34)c(C(F)(F)F)cc21 [Example 51]
Result string: 95

Query string: Report IC50, nothing else, for this compound: COCc1nc2cc(-c3cccc(NC(=O)c4ccc(NC(=O)/C=C/CNC5CC6C(C5)C6(F)F)c(C#N)c4)c3)c(C(F)(F)F)cc2n1C (stereo not drawn) [Example 25]
Result string: 250

Query string: Report IC50, nothing else, for this compound: Cc1cc2c(cc1-c1cccn3c(C(=O)c4ccc(NC(=O)/C=C/CNC(C)(C)C)c(C#N)c4)ccc13)ncn2C [Example 5]
Result string: 29

Query string: Report IC50, nothing else, for this compound: COc1cccc(F)c1-c1cccn2c(C(=O)c3ccc(NC(=O)/C=C/CN[C@H]4CC[C@H](OC)CC4)c(C#N)c3)ccc12 [Example 43]
Result string: 170

Query string: Report IC50, nothing else, for this compound: CO[C@H]1CC[C@H](NC/C=C/C(=O)Nc2ccc(C(=O)c3cnc4c(-c5cc6ncn(C)c6cc5C(F)(F)F)cccn34)cc2C#N)CC1 [Example 80]
Result string: 27

Query string: Report IC50, nothing else, for this compound: Cn1cnc2c(Cl)c(-c3cccn4c(C(=O)c5ccc(NC(=O)/C=C/CNC(C)(C)C)c(C#N)c5)ccc34)c(Cl)cc21 [Example 55]
Result string: 21

Query string: Report IC50, nothing else, for this compound: CO[C@H]1CC[C@H](NC/C=C/C(=O)Nc2c(F)cc(C(=O)c3cnc4c(-c5cc6ncn(C)c6cc5C(F)(F)F)cccn34)cc2F)CC1 [Example 68]
Result string: 57

Query string: Report IC50, nothing else, for this compound: CO[C@H]1CC[C@H](NC/C=C/C(=O)Nc2ccc(C(=O)c3ccc4c(-c5cc6nc(C)n(C)c6cc5C(F)(F)F)cccn34)cc2C#N)CC1 [Example 7]
Result string: 35

Query string: Report IC50, nothing else, for this compound: Cn1cnc2cc(-c3cccn4c(C(=O)c5ccc(NC(=O)/C=C/[C@H]6CCCN6)c(C#N)c5)ccc34)c(C(F)(F)F)cc21 [Example 42]
Result string: 360

Query string: Report IC50, nothing else, for this compound: CO[C@H]1CC[C@H](NC/C=C/C(=O)Nc2ccc(C(=O)c3ccc4c(-c5cc6nc7n(c6cc5C(F)(F)F)CCC7)cccn34)cc2C#N)CC1 [Example 31]
Result string: 26

Query string: Report IC50, nothing else, for this compound: CCc1nc2cc(-c3cccc4c3CCN4C(=O)c3ccc(NC(=O)/C=C/CNC4CCN(C(C)C)CC4)c(C#N)c3)c(C(F)(F)F)cc2n1C [Example 30]
Result string: 75

Query string: Report IC50, nothing else, for this compound: CO[C@H]1CC[C@H](N(C)C/C=C/C(=O)Nc2ccc(C(=O)c3ccc4c(-c5cc6ncn(C)c6cc5C(F)(F)F)cccn34)cc2C#N)CC1 [Example 78]
Result string: 96

Query string: Report IC50, nothing else, for this compound: CO[C@H]1CC[C@H](NC/C=C/C(=O)Nc2ccc(C(=O)c3ccc4c(-c5cc6ncn(C)c6cc5C(F)(F)F)cccn34)cc2C#N)CC1 [Example 6]
Result string: 15

Query string: Report IC50, nothing else, for this compound: CO[C@H]1C[C@H](NC/C=C/C(=O)Nc2ccc(C(=O)Nc3cccc(-c4cc5nc6n(c5cc4C(F)(F)F)CCC6)c3)cc2C#N)C1 [Example 28]
Result string: 100

Query string: Report IC50, nothing else, for this compound: CCN(CC)[C@H]1CC[C@H](NC/C=C/C(=O)Nc2ccc(C(=O)Nc3cccc(-c4cc5ncn(C)c5cc4Cl)c3)cc2C#N)CC1 [Example 19]
Result string: 34

Query string: Report IC50, nothing else, for this compound: CO[C@H]1CC[C@H](NC/C=C/C(=O)Nc2ccc(C(=O)c3ccc4c(-c5cc6cn(C)nc6cc5C)cccn34)cc2C#N)CC1 [Example 76]
Result string: 130

Query string: Report IC50, nothing else, for this compound: O=C(/C=C/CN[C@H]1CC[C@H](O)CC1)Nc1ccc(C(=O)Nc2cccc(Br)c2)cn1 [Comparative example 1, reference compound]
Result string: 20000

Query string: Report IC50, nothing else, for this compound: CO[C@H]1CC[C@H](NC/C=C/C(=O)Nc2ccc(C(=O)c3ccc4c(-c5c(C)cc6c(ncn6C)c5-c5cccnc5)cccn34)cc2C#N)CC1 [Example 82]
Result string: 150

Query string: Report IC50, nothing else, for this compound: CO[C@H]1CC[C@H](NC/C=C/C(=O)Nc2ccc(C(=O)c3ccc4c(-c5c(Cl)cc6c(ncn6C)c5Cl)cccn34)cc2C#N)CC1 (single isomer, unassigned) [Example 63]
Result string: 210

Query string: Report IC50, nothing else, for this compound: CO[C@H](C)c1nc2cc(-c3cccc(NC(=O)c4ccc(NC(=O)/C=C/CN[C@H]5CC[C@H](OC)CC5)c(C#N)c4)c3)c(C(F)(F)F)cc2n1C [Example 23]
Result string: 220
